# Experimental target: recombinant hNAPRT (Homo sapiens, UniProt Q6XQN6)
# Construct: His-tag (C); made in house; host or cells: E. coli
# Sequence (Q6XQN6 whole entry): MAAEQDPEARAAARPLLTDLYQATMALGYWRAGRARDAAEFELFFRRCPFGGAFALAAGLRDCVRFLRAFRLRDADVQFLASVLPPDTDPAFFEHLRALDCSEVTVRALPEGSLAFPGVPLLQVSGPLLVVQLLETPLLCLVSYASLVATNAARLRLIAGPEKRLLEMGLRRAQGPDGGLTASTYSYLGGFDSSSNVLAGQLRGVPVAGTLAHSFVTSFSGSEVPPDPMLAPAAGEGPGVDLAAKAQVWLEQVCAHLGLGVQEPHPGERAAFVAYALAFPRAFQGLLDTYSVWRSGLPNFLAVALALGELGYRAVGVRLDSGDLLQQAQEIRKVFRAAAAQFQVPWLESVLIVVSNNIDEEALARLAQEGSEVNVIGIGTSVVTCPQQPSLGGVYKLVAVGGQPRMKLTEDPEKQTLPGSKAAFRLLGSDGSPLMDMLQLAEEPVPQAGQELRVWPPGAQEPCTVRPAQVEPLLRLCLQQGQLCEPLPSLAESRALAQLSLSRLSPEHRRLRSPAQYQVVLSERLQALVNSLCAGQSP
# Measurement description: hNAPRT melting temperature determination (DSF)
# Format: binding
# Measurement conditions: 100 μM inhibitor, 5 μM hNAPRT

{"Compound": "NCc1cc2c(cc1Cl)OCO2", "Experimental target": "recombinant hNAPRT (Homo sapiens, UniProt Q6XQN6)", "Tm shift of hNAPRT": "remained unchanged"}
{"Compound": "CC(Oc1ccccc1Cl)C(=O)Nc1cccc(C(=O)O)c1 (centres unmarked)", "Experimental target": "recombinant hNAPRT (Homo sapiens, UniProt Q6XQN6)", "Tm shift of hNAPRT": "remained unchanged"}
{"Compound": "CC(C)(C)C(=O)OCCCn1cc(CCCN2CC(O)C(O)C2CNC(=O)c2ccccc2)nn1 (centres unmarked)", "Experimental target": "recombinant hNAPRT (Homo sapiens, UniProt Q6XQN6)", "Tm shift of hNAPRT": "approximately 0.5 °C"}
{"Compound": "CC(C)(C)C(=O)OCCCn1cc(CCCN2CC(O)C(O)C2Cn2cc(-c3ccccc3)nn2)nn1 (centres unmarked)", "Experimental target": "recombinant hNAPRT (Homo sapiens, UniProt Q6XQN6)", "Tm shift of hNAPRT": "approximately 0.5 °C"}
{"Compound": "O=C(Cn1c(=O)sc2ccccc21)Nc1cccc(C(=O)O)c1", "Experimental target": "recombinant hNAPRT (Homo sapiens, UniProt Q6XQN6)", "Tm shift of hNAPRT": "remained unchanged"}
